Recorded growth for the following compounds
System: SW-620 colon
Assay: NCI-60 one-dose screen, 48 h (100 = growth as untreated, 0 = no growth, -100 = all killed)
Details: 10 µM unless noted
Protocol: Growth inhibition of the SW-620 human tumor cell line is measured as a screen for anti-cancer activity. Cells are grown in 96 well plates and exposed to the test compound for 48 hours. Compounds are tested at a single concentration, which is 10^-5 M for most compounds. The reported endpoint is percent growth (GI% or GIPRCNT), where numbers from 0 - 100% represent growth inhibition, and numbers from -100% - 0 represent cell death. For example, a value of 40 represents 60% growth inhibition. […]
This is part of a sample that, as a whole, favours compounds with a hit. Of some 83,000 tested, about 20% had one in any assay. Activity calls are given as the source filed them. Rule for the calls: active = growth percent below 10; inactive = the rest.

CN(CCc1ccccc1)C(=S)N(C(=O)c1ccc([N+](=O)[O-])cc1)c1ccc(Cl)cc1 :: 75.3% (inactive)
CCOc1cc2c(cc1OCC)C(c1cc(C)c(O)c(C)c1)NCC2 (stereo unspecified) :: 100% (inactive)
COc1cccc2c1C=C1CCCCC3=Cc4c(OC)cccc4OC13O2 :: 27.2% (inactive)
O=C1NC(=O)C(=Cc2cn(Cc3cn(Cc4ccc(Cl)cc4Cl)nn3)c3ccccc23)C(=O)N1 :: 92.1% (inactive)
Brc1ccc(Nc2nc3ccccc3nc2Nc2ccc(Br)cc2)cc1 :: -69.9% (active)
CCOc1c(Br)cc(C2C(C(=O)OC)=CN(C)C=C2C(=O)OC)cc1OC :: 58% (inactive)
Cc1ccc(CN2CCC(C(=O)Nc3ccc(-c4cc5ccccc5[nH]4)cc3)CC2)o1 :: 66% (inactive)
CCOC(=O)c1cc2c(n1Cc1cc(OC)cc(OC)c1)-c1oncc1CCC2 :: 24.7% (inactive)
COc1ccc(/C=C2\N=C(c3ccccc3)N(c3ccc(-c4nc5ccc(C)cc5s4)cc3)C2=O)cc1 :: 101% (inactive)
O=C(Cn1cc(COc2ncnc3c2cnn3-c2ccccc2)nn1)Nc1ccccn1 :: 102% (inactive)

Entry CCOC(=O)c1ccc(N=Cc2sc(=O)[nH]c2O)cc1 ; assay system SW-620 colon; growth recorded at 100% (inactive)

Entry O=C(CCN1C(=O)c2ccccc2C1=O)Nc1ccc(Cl)cc1 ; assay system SW-620 colon; growth recorded at 103% (inactive)

Entry COc1ccc(-c2nsc3c2NC(=O)CC3c2ccc3c(c2)OCCO3)cc1 (stereo unspecified) ; assay system SW-620 colon; growth recorded at 35.7% (inactive)

Entry CCOc1ccc(-c2nonc2NC(=O)c2cccc(C)c2)cc1OCC ; assay system SW-620 colon; growth recorded at 61.8% (inactive)

Entry O=S1(=O)N(Cc2ccccc2)[C@@H](Cc2ccccc2)[C@H](O)[C@H](O)[C@H](Cc2ccccc2)N1Cc1ccccc1 ; assay system SW-620 colon; growth recorded at 9.22% (active)

Entry O=C(CN1C=NC2C(N3CCOCC3)=NC=NC21)c1ccc(Br)cc1 (stereo unspecified) ; assay system SW-620 colon; growth recorded at 100% (inactive)

----------
Recorded growth for the following compounds
system: OVCAR-3 ovarian; experiment: NCI-60 one-dose screen, 48 h (100 = growth as untreated, 0 = no growth, -100 = all killed); conditions: 10 µM unless noted
The panel holds about 83,000 compounds, 20% with a hit somewhere; the sample as a whole holds those more often.
The answer is to be given in %; state only the numeric part.

Guide cases for growth, answers given:
COc1ccc(/C=C/C(=O)c2c(C)nc3ccccc3c2/C=C/c2ccccc2)cc1O :: 13.6
CN1C(=O)N(C)C2Nn3c(s/c(=C4\C(=O)N(CCc5ccccc5)c5ccccc54)c3=O)=NC21 (centres undefined) :: 39.7
COc1cccc(C(=O)NC(c2ccc(C)cc2)c2cc(Cl)c3cccnc3c2O)c1 (centres undefined) :: 30

Value of growth reported for the compound CCOC(=O)c1cc2c(n1Cc1ccccc1OC)-c1oncc1CCC2 is 8.96

Value of growth reported for the compound CSc1nc2c(c(=O)n1C)N=C1c3ccccc3C(=O)C1C(c1ccccc1)N2 (centres undefined) is 39.4

Value of growth reported for the compound O=C(Nc1ccc(N2CCNCC2)cn1)c1[nH]ncc1Nc1ncnc2sc3c(c12)CCC3 is -39.3

Value of growth reported for the compound O=c1oc2ccc(F)cc2c(=O)n1-c1ccc(Cl)cc1F is 8.61

Value of growth reported for the compound COC(=O)[C@@H]1CCCN1C(=O)[C@H]1CCCN1C(=O)[C@@H](Cc1c[nH]c2ccccc12)NC(=S)Nc1cc(C(F)(F)F)cc(C(F)(F)F)c1 is 47

Value of growth reported for the compound Cc1ccccc1CNC(=O)C1CN(c2ccc(Cl)cc2)N(c2ccc(Cl)cc2)C1=O (centres undefined) is 81.1
